Reference source for all entries: patent US20240010722A1

Measured Insulin polyreactivity score values are reported for all entries that follow.
- TARGET SYSTEM: Insulin
- Sequence (P01308 25-54, chain 1 of 2): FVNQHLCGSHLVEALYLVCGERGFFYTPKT
- Sequence (P01308 90-110, chain 2 of 2): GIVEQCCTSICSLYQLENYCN
- PROCEDURE SUMMARY: polyreactivity ELISA on insulin coat, 100 nM
Reply with the value as a number alone.

Recorded results for 3 binders are shown here.
>  <BINDER>
MIAB165 (antibody, V domains shown) VH: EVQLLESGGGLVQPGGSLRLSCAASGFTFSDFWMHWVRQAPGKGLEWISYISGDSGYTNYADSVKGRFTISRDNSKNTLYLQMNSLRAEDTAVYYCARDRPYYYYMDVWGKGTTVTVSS VL: DIQMTQSPSSLSASVGDRVTITCRASQSVSRSLSWYQQKPGKAPKLLIYAASSLQSGVPSRFSGSGSGTDFTLTISSLQPEDFATYYCQQYKSYPVTFGQGTKVEIK

>  <MEASURED ATTRIBUTE>
Insulin polyreactivity score

>  <RECORDED NUMBER>
9.53

$$$$
>  <BINDER>
MIAB129 (antibody, V domains shown) VH: EVQLLESGGGLVQPGGSLRLSCAASGFTFSDFWMHWVRQAPGKGLEWISYISGDSGYTNYADSVKGRFTISRDNSKNTLYLQMNSLRAEDTAVYYCARDRPGYYYMDVWGKGTTVTVSS VL: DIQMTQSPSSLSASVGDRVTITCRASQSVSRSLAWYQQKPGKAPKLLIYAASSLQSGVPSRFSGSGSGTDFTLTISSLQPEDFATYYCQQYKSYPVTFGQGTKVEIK

>  <MEASURED ATTRIBUTE>
Insulin polyreactivity score

>  <RECORDED NUMBER>
2.43

$$$$
>  <BINDER>
MIAB159 (antibody, V domains shown) VH: EVQLLESGGGLVQPGGSLRLSCAASGFTFSDFWMHWVRQAPGKGLEWISYISGESGYTNYADSVKGRFTISRDNSKNTLYLQMNSLRAEDTAVYYCARDRPYYYYMDVWGKGTTVTVSS VL: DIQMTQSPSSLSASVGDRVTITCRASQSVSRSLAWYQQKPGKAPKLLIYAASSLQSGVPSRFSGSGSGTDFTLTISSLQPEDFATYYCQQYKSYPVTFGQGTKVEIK

>  <MEASURED ATTRIBUTE>
Insulin polyreactivity score

>  <RECORDED NUMBER>
4.66

$$$$

## Task Value lookup for Insulin polyreactivity score; key = MIAB156 (antibody, V domains shown) VH: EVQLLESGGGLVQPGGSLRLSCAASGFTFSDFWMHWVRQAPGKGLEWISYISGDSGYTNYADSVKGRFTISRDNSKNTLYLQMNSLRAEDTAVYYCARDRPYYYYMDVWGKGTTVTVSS VL: DIQMTQSPSSLSASVGDRVTITCRASQSISRYLNWYQQKPGKAPKLLIYAASSLQSGVPSRFSGSGSGTDFTLTISSLQPEDFATYYCQQYKSYPVTFGQGTKVEIK
## Result 45.2

## Task Value lookup for Insulin polyreactivity score; key = MIAB162 (antibody, V domains shown) VH: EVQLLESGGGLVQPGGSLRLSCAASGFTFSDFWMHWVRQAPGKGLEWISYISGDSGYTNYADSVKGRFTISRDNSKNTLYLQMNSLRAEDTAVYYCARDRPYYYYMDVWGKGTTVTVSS VL: DIQMTQSPSSLSASVGDRVTITCRASQSVSRSLGWYQQKPGKAPKLLIYAASSLQSGVPSRFSGSGSGTDFTLTISSLQPEDFATYYCQQYKSYPVTFGQGTKVEIK
## Result 5.31
